Attribution: ChEMBL document CHEMBL4382284

- procedureSummary: 1-Octanol-buffer partition coefficient, log D of compound at pH 7.4 after 24 hrs by shake-flask method
- Format: physicochemical
- recordedConditions: 1-octanol/buffer, pH 7.4
readoutType: logD at 24 h

>>> observedvalue("C=CC(=O)N(c1cccc(Cl)c1F)c1ncnc2cc(OC)c(OC(=O)N3CCN(C)C[C@H]3C)cc12")
2.46
>>> observedvalue("C=CC(=O)N(c1ccc(F)c(Cl)c1)c1ncnc2cc(OC)c(OCCCN3CCOCC3)cc12")
2.01
>>> observedvalue("C=CC(=O)N(c1cccc(Cl)c1F)c1ncnc2cc(OC)c(OCCCN3CCOCC3)cc12")
2.64
>>> observedvalue("C=CC(=O)N(c1ccc(Cl)c(Cl)c1)c1ncnc2cc(OC)c(OCCCN3CCOCC3)cc12")
3.57
>>> observedvalue("COc1cc2ncnc(Nc3cccc(Cl)c3F)c2cc1OC(=O)N1CCN(C)C[C@H]1C [AZD-3759]")
2.84
